TEST_SUMMARY: Paramagnetic relaxation properties in water at 10 MHz (0.15T), RADX spin analyzer
Format: physicochemical
MEASUREMENT_PARAMETERS: 1 mM solution in water, 10 MHz (0.15T)
READOUT_NAME: Relaxivity (mM⁻¹sec⁻¹) Spin-Lattice
Form field: result (number plus unit)

COMPOUND	READOUT_NAME	OBSERVED_VALUE
CC(=O)[O-].CC(=O)[O-].NCC(=O)O.NCC(=O)O.NCC(=O)O.NCC(=O)O.[Mn+2] [[Manganese(II)·(Glycine)₄]Diacetate]	Relaxivity (mM⁻¹sec⁻¹) Spin-Lattice	8.00 mM⁻¹ s⁻¹
CC(=O)[O-].CC(=O)[O-].O.O.O.O.[Mn+2] [[Manganese(II)·(H₂O)₄]Diacetate, reference compound]	Relaxivity (mM⁻¹sec⁻¹) Spin-Lattice	9.09 mM⁻¹ s⁻¹
CC(=O)[O-].CC(=O)[O-].NCC(=O)O.O.O.O.[Mn+2]	Relaxivity (mM⁻¹sec⁻¹) Spin-Lattice	8.26 mM⁻¹ s⁻¹
CC(=O)[O-].CC(=O)[O-].NCC(=O)O.NCC(=O)O.O.O.[Mn+2]	Relaxivity (mM⁻¹sec⁻¹) Spin-Lattice	8.40 mM⁻¹ s⁻¹

Qu. Need Relaxivity (mM⁻¹sec⁻¹) Spin-Lattice of CC(=O)[O-].CC(=O)[O-].NCC(=O)O.NCC(=O)O.NCC(=O)O.O.[Mn+2] , thanks.
Ans. 8.47 mM⁻¹ s⁻¹
